Cited source for all entries: PubChem BioAssay AID488969

target: Metabotropic glutamate receptor 8 (Rattus norvegicus); test: mGluR8 Gi/Go-coupled signaling modulation – cell-based, rat, thallium flux, HTS, primary screen (AID 488969); settings: HEK293 rat mGluR8, GIRK thallium flux, FluoZin2; at 10 µM; stronger effect = higher value; submaximal glutamate (EC20) added with thallium
Whole data set: some 110,000 compounds, median “z-score” near -0.1, cut for the highest 2% near 2. What follows is part of a selection rich in the highest values, with near analogues and random picks from the rest.
Assign classes using reported z-score values and the ranges lowest = under -0.1, middle = from -0.1 up to 0.5, highest = 0.5 and over, please.

Which z-score category applies to CCOC(=O)c1cnc2c(C)c(Cl)ccc2c1Nc1ccc(S(=O)(=O)Nc2ncccn2)cc1 here? highest

Which z-score category applies to CS(=O)(=O)Nc1ccc2c(c1)nc1n2CCOC1 here? lowest

Which z-score category applies to Cc1cccc(C)c1Nc1c(-c2ccsc2)nc2ncccn12 here? lowest

Which z-score category applies to COc1ccc(/C=N/NC(=O)c2nc(-c3ccccc3)cc(-c3ccccc3)n2)cc1 here? highest

Which z-score category applies to COC(CNC(=O)Cn1ncc2ccsc2c1=O)OC here? lowest

Which z-score category applies to O=C(CSCCO)Nc1cccc(C(F)(F)F)c1 here? highest

Which z-score category applies to Cc1cc(C)nc(NC(=O)CCC2CCCC2)c1 here? middle

Which z-score category applies to O=C(Nc1ccc2ccccc2c1)C(c1ccccc1)C1CCCC1 (centres undefined) here? middle

Which z-score category applies to CN1CCN(S(=O)(=O)c2cccc(C(=O)Nc3nc(-c4ccccc4)cs3)c2)CC1 here? lowest

Which z-score category applies to O=C(Nc1ccccc1)C(c1ccccc1)C1CCCC1 (centres undefined) here? lowest

Which z-score category applies to Cc1ccccc1C(=O)N1CCN(c2ccc([N+](=O)[O-])c(NCc3cccnc3)c2)CC1 here? lowest

Which z-score category applies to C=CCSc1[nH]c(=O)cc(C)c1C(N)=O here? highest

Which z-score category applies to Cc1ccc(-c2nc3ccccn3c2NC(=O)c2ccco2)cc1 here? highest

Which z-score category applies to CC1CCCN(C(=O)C2CCCN(S(=O)(=O)c3cccc4nsnc34)C2)C1 (centres undefined) here? middle

----------
target: Metabotropic glutamate receptor 8 (Rattus norvegicus); experiment: mGluR8 Gi/Go-coupled signaling modulation – cell-based, rat, thallium flux, HTS, primary screen (AID 488969); conditions: HEK293 rat mGluR8, GIRK thallium flux, FluoZin2; at 10 µM; stronger effect = higher value; submaximal glutamate (EC20) added with thallium
Over roughly 110,000 compounds, “z-score” has its median near -0.1; the highest 2% begin near 2. The sample holds the highest values, similar compounds and a random draw of the others, so the mix is not that of the screen. The source made the active and inactive calls.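 How the source made its calls: active means z-score in the third read window above 3 or below -3; inactive means the rest.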
attribute_measured: z-score

// returns reported z-score for input CCN(CC)S(=O)(=O)c1ccc(NC(=O)c2cc(C(=O)OC)cc([N+](=O)[O-])c2)cc1 -0.729

// returns reported z-score for input Cc1ccc(OCC(=O)Nc2cccc(S(=O)(=O)N3CCCCC3)c2)c([N+](=O)[O-])n1 0.216

// returns reported z-score for input O=C(Nc1cccc(Cl)c1)Nc1nccs1 10.2 (active)

// returns reported z-score for input Cc1ccccc1OCCCC(=O)Nc1nccs1 2.49

// returns reported z-score for input C=CCn1c(=S)[nH]c2sc3c(c2c1=O)CCC3 10.9 (active)

// returns reported z-score for input CC(=O)Nc1ccc(N(C(=O)Cc2c[nH]c3ccccc23)C(C(=O)NC2CCCCC2)c2ccco2)cc1 (stereo not drawn) 1.17

// returns reported z-score for input Cc1cccc(NC(=O)C2Cc3ccccc3CN2C(=O)OCc2ccccc2)c1C (stereo not drawn) -0.188

// returns reported z-score for input O=S(=O)(c1cccc(NC(=S)N2CCN(c3ccccc3)CC2)c1)C(F)F -0.245

// returns reported z-score for input CCOC(=O)CN1NC2(CCC(C(C)(C)C)CC2)NC1=S (stereo not drawn) 2.66

// returns reported z-score for input Cc1ccc(Cn2c(SCC(C)C)nc3c2c(=O)[nH]c(=O)n3C)cc1 -0.876

// returns reported z-score for input Cc1ccc(OCC(=O)Nc2cc(S(=O)(=O)N3CCCCC3)ccc2C)c([N+](=O)[O-])n1 -0.377

// returns reported z-score for input COc1ccc(OCc2ccc(C(=O)NN)cc2)cc1 0.222

// returns reported z-score for input CCOC(=O)C1CCCN(C(=O)Cn2sc3nc(C)cc(C)c3c2=O)C1 (stereo not drawn) 2.2

// returns reported z-score for input O=C(Nc1ccccc1)Nc1nccs1 1.3

// returns reported z-score for input COc1cc(CC(=O)Nc2ccc3nc(C)sc3c2)cc(OC)c1OC -0.158

// returns reported z-score for input CCOC(=O)C1CCCN(C(=O)CSCc2ccccc2)C1 (stereo not drawn) -1.22

// returns reported z-score for input O=C(CCCOc1ccccc1)Nc1nccs1 -1.29

// returns reported z-score for input CCn1c(SCc2ccc(Cl)cc2)nnc1-c1ccccc1 3.4 (active)

// returns reported z-score for input COc1ccc(C(=O)C(CCCCC(CN(C)C)C(=O)c2ccc(OC)cc2)CN(C)C)cc1 (stereo not drawn) -0.494

// returns reported z-score for input CCCNC(=O)Cc1ccsc1 0.11

// returns reported z-score for input Cc1cc(C)c2c(=O)n(CC(=O)N3CCC(N4CCCCC4)CC3)sc2n1 -0.421

// returns reported z-score for input O=C(Nc1cccc(Cl)c1)Nc1cccc(Cl)c1 0.0262

// returns reported z-score for input Cc1cccc(N2CCN(C(=O)Cn3sc4nc(C)cc(C)c4c3=O)CC2C)c1 (stereo not drawn) 0.149

// returns reported z-score for input Cc1cc(Cl)c(S(=O)(=O)Nc2ccc(Cl)cn2)cc1OCC(N)=O 0.203

// returns reported z-score for input CCOC(=O)CN1NC2(CCCCC2)NC1=S 0.284

// returns reported z-score for input Cc1ccc(C)c(OCCCC(=O)Nc2nccs2)c1 -0.0356

// returns reported z-score for input Cc1ccc(NC(=O)COc2cccnc2[N+](=O)[O-])cc1S(=O)(=O)N1CCCCC1 4.45 (active)

// returns reported z-score for input CC1CCC(NC(=O)Cn2c(=O)[nH]c3ccsc3c2=O)CC1 (stereo not drawn) -0.274

// returns reported z-score for input Cc1nc2cc(C(=O)OCC(=O)Nc3ccc(C#N)cc3)ccc2n1-c1ccccc1 -0.0383

// returns reported z-score for input CC(=O)c1cnn(-c2nc3c(C)cccc3s2)c1C -0.111

// returns reported z-score for input O=C(COC(=O)c1cccnc1)Nc1ccccc1 0.274

// returns reported z-score for input CS(=O)(=O)N1CCN(c2ccccc2NC(=O)c2cccc3ccccc23)CC1 -0.227

// returns reported z-score for input CCn1c(SCc2cccc(C)c2)nnc1-c1ccccc1 -0.431

----------
biological target: Metabotropic glutamate receptor 8 (Rattus norvegicus); assay: mGluR8 Gi/Go-coupled signaling modulation – cell-based, rat, thallium flux, HTS, primary screen (AID 488969); conditions: HEK293 rat mGluR8, GIRK (G protein-gated inwardly rectifying potassium channel) thallium flux, FluoZin2; at 10 µM; stronger effect = higher value; submaximal glutamate (EC20) added with thallium
Whole data set: some 110,000 compounds, median “z-score” near -0.1, cut for the highest 2% near 2. For the sample, the highest values were picked, then their nearest neighbours and some compounds at random.
Each entry gets rule not met if its z-score stays under 0.04, and rule met if its z-score is 0.04 or above.

API: above_or_equal(metric=z-score, cutoff=0.04) for item CO/N=C/c1ccc(N2CCN(C(=O)c3cccc(C(F)(F)F)c3)CC2)c([N+](=O)[O-])c1 rule not met

API: above_or_equal(metric=z-score, cutoff=0.04) for item CC1CCN(C(=O)Cn2c(=O)n(Cc3ccc4c(c3)OCO4)c(=O)c3ccccc32)CC1 rule not met

API: above_or_equal(metric=z-score, cutoff=0.04) for item Cc1nccn1CCc1nc(N)nc(N)n1 rule met

API: above_or_equal(metric=z-score, cutoff=0.04) for item CCN(CC)C(=O)CSc1nnc(-c2ccccc2)c(-c2ccccc2)n1 rule not met

API: above_or_equal(metric=z-score, cutoff=0.04) for item Cc1ccn2c(NC3CCCCC3)c(C(C)C)nc2c1 rule met

API: above_or_equal(metric=z-score, cutoff=0.04) for item CN(CCC#N)C(=O)COC(=O)c1ccc(Cl)c(S(N)(=O)=O)c1 rule met

API: above_or_equal(metric=z-score, cutoff=0.04) for item COc1cc(OC)cc(C(=O)NC(=S)N2CCN(c3ccc(C(F)(F)F)cc3[N+](=O)[O-])CC2)c1 rule met

API: above_or_equal(metric=z-score, cutoff=0.04) for item CC(C(=O)Nc1ccc(Cl)cc1)c1ncc(C(F)(F)F)cc1Cl (stereo not drawn) rule not met

API: above_or_equal(metric=z-score, cutoff=0.04) for item Nc1ccccc1C(=O)NNc1ncc(C(F)(F)F)cc1Cl rule met

API: above_or_equal(metric=z-score, cutoff=0.04) for item CC(C)C(C)(C#N)NC(=O)CSc1nnc(-c2ccncc2)n1Cc1ccccc1 (stereo not drawn) rule not met

API: above_or_equal(metric=z-score, cutoff=0.04) for item CCn1c(CCn2ccnc2C)n[nH]c1=S rule met

API: above_or_equal(metric=z-score, cutoff=0.04) for item CC(C)Oc1cccc(C(=O)NC(=S)N2CCN(c3ccc(C(F)(F)F)cc3[N+](=O)[O-])CC2)c1 rule met

API: above_or_equal(metric=z-score, cutoff=0.04) for item CN(NC(=O)Nc1ccc(Cl)cc1)c1ncc(C(F)(F)F)cc1Cl rule met
